Target: T1, TNFR1 (Homo sapiens, UniProt P19438)
T1 chain: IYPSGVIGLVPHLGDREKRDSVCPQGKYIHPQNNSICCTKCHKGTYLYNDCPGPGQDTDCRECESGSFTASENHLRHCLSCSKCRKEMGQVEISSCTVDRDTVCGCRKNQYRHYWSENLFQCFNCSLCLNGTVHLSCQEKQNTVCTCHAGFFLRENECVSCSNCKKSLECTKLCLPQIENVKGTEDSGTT
Test: yeast display SC50
endpoint-label: apparent Kd (screen) (nM)
Just the number please, in nM, no unit attached.

{"columns": ["binder", "test-result"],
 "data": [
  ["A51W (designed binder) SMEEEVEKAAKEYEKKKKEAIEKHLEKLKAKDKEAAERFLKELEEAAKEYWKDEAKTMSEEEAKRRAKKYKEKVLLSELSEEEQKEIKEAEEKLVRTILKYVEEAAK", 0.49],
  ["E72I (designed binder) SMEEEVEKAAKEYEKKKKEAIEKHLEKLKAKDKEAAERFLKELEEAAKEYAKDEAKTMSEEEAKRRAKKYKIKVLLSELSEEEQKEIKEAEEKLVRTILKYVEEAAK", 0.718],
  ["K8Y (designed binder) SMEEEVEYAAKEYEKKKKEAIEKHLEKLKAKDKEAAERFLKELEEAAKEYAKDEAKTMSEEEAKRRAKKYKEKVLLSELSEEEQKEIKEAEEKLVRTILKYVEEAAK", 0.956],
  ["A36I (designed binder) SMEEEVEKAAKEYEKKKKEAIEKHLEKLKAKDKEAIERFLKELEEAAKEYAKDEAKTMSEEEAKRRAKKYKEKVLLSELSEEEQKEIKEAEEKLVRTILKYVEEAAK", 1.54]
]}

Problem: I am curious: what apparent Kd (screen) value has been reported for R66L (designed binder) SMEEEVEKAAKEYEKKKKEAIEKHLEKLKAKDKEAAERFLKELEEAAKEYAKDEAKTMSEEEAKRLAKKYKEKVLLSELSEEEQKEIKEAEEKLVRTILKYVEEAAK ?
Result: 18.3
